Assay Target: wild-type HIV-1 protease (Human immunodeficiency virus type 1 group M subtype B, UniProt P04585)
Construct: Escherichia coli expressed wild-type HIV-1 protease protein
Assay Name: Assay for Inhibition of Microbial Expressed HIV Protease (peptide substrate cleavage, LC-MS/MS readout)
Type: biochemical
Study Conditions: E. coli expressed wild-type HIV-1 protease, mean of at least two independent experiments, read-out: HIV Pr Enzyme HIV1 PR IC50
For each entry below, report its IC50 value.
Numbers only, in nM.

Consider the worked cases shown below.
{"Compound": "CC(C)CC1(c2ccccc2)NC(=N)N(Cc2ccc(Cl)c(C(=O)N3Cc4cnc(C#N)nc4C3)c2)C1=O (stereo not shown) [Compound 364]", "Reading": 4.17}
{"Compound": "N=C1N[C@](CCCC(F)(F)F)(c2ccc(F)cc2)C(=O)N1Cc1ccc(C(F)(F)F)c(C(=O)N2Cc3cnc(NC4CCCC4)nc3C2)c1 [Compound 71]", "Reading": 9.19}
{"Compound": "CC(=O)N1CCN(C(=O)c2cccc(CN3C(=N)NC(c4ccc(F)cc4)(c4ccc(F)cc4)C3=O)c2)CC1 [Compound 335]", "Reading": 70.5}

The compound N=C1NC(c2ccccc2)(c2ccccc2)C(=O)N1Cc1cccc(C(=O)N2CCc3ccc(C(F)(F)F)cc3C2)c1 [Compound 334] showed IC50 equal to 70

====

For each entry below, report its IC50 value.
Assay Target: UniProtKB P04585
Answers are plain numbers, in nM.

Consider the worked cases shown below.
{"Compound": "N=C1NC(c2ccc(F)cc2)(c2ccc(F)cc2)C(=O)N1Cc1cccc(C(=O)N2CCN(c3ncccn3)CC2)c1 [Compound 280]", "Assay Target": "UniProtKB P04585", "Reading": 31}
{"Compound": "N=C1N[C@](CCCC(F)(F)F)(c2ccc(F)cc2)C(=O)N1Cc1ccc(C(F)(F)F)c(C(=O)N2Cc3cnc(-c4cccc(-n5nccn5)c4)nc3C2)c1 [Compound 95]", "Assay Target": "UniProtKB P04585", "Reading": 19.4}
{"Compound": "CCCC1(c2ccccc2)NC(=N)N(Cc2cccc(C(=O)N3CCN(c4ncccn4)CC3)c2)C1=O (stereo not drawn) [Compound 320]", "Assay Target": "UniProtKB P04585", "Reading": 56.7}
{"Compound": "N=C1NC(c2ccc(F)cc2)(c2ccc(F)cc2)C(=O)N1Cc1cncc(C(=O)N2CCN(C(=O)OCCOCc3ccccc3)CC2)c1 [Compound 391]", "Assay Target": "UniProtKB P04585", "Reading": 13.6}
{"Compound": "CN(C)C(=O)N1CCN(C(=O)c2cccc(CN3C(=N)NC(c4ccccc4)(c4ccccc4)C3=O)c2)CC1 [Compound 357]", "Assay Target": "UniProtKB P04585", "Reading": 91.2}
{"Compound": "CC(=O)NCc1cc2c(o1)CCN(C(=O)c1cc(CN3C(=N)NC(CCC(C)C)(c4ccc(F)cc4)C3=O)ccc1C(F)(F)F)C2 (stereo not drawn) [Compound 178]", "Assay Target": "UniProtKB P04585", "Reading": 71.6}
{"Compound": "N=C1NC(c2ccc(F)cc2)(c2ccc(F)cc2)C(=O)N1Cc1ccc(Cl)c(C(=O)N2Cc3ccc(F)cc3C2)c1 [Compound 377]", "Assay Target": "UniProtKB P04585", "Reading": 10}
{"Compound": "N=C1NC(c2ccc(F)cc2)(c2ccc(F)cc2)C(=O)N1Cc1cccc(C(=O)N2CCC(n3c(=O)[nH]c4nc(F)ccc43)CC2)c1 [Compound 316]", "Assay Target": "UniProtKB P04585", "Reading": 52.9}

Let's switch to this compound now.
The compound N=C1NC(c2ccccc2)(c2ccccc2)C(=O)N1Cc1cccc(C(=O)N2CCn3nc(C(F)(F)F)nc3C2)c1 [Compound 301] showed IC50 equal to 45.2
